- Test system: SV40-DNA amplification in SV40 transformed embryonic CO631 hamster cells
- PROTOCOL_DETAILS: SV40-DNA gene amplification system in SV40-transformed hamster cells
- Assay type: cell-based, Chinese Hamster
- CONDITION_DETAILS: model substance given alone; FIGS. 1 to 3

COMPOUND	effect on SV40 gene amplification
CN(C)C=O [dimethylfornamide, dimethylformamide]	no effect
CC(C)=O [acetone]	no effect

These measurements were taken from patent US6589941B1.
